biological target: Estrogen receptor (Mus musculus) (UniProt O08537+P19785); assay: Uterotrophic activity in mice as uterus dry weight (mg)/body weight (g) *100 at 0.2 ug dose; type: functional, tissue-based
Sequence (O08537 whole entry, looked up): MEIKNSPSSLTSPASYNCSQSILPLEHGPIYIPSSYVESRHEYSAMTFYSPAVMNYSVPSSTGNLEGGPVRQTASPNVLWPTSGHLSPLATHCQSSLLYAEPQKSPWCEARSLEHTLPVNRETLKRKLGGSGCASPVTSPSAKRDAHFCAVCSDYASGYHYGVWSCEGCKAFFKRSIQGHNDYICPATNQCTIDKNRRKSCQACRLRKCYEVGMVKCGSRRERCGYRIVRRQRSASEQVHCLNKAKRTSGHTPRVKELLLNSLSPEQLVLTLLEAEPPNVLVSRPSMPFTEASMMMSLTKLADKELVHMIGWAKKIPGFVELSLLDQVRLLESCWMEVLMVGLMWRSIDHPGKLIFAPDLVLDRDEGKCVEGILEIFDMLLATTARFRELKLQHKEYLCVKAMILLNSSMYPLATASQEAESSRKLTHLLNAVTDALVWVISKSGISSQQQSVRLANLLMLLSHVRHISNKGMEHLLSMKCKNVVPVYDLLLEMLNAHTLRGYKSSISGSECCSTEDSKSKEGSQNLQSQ
Sequence (P19785 whole entry, looked up): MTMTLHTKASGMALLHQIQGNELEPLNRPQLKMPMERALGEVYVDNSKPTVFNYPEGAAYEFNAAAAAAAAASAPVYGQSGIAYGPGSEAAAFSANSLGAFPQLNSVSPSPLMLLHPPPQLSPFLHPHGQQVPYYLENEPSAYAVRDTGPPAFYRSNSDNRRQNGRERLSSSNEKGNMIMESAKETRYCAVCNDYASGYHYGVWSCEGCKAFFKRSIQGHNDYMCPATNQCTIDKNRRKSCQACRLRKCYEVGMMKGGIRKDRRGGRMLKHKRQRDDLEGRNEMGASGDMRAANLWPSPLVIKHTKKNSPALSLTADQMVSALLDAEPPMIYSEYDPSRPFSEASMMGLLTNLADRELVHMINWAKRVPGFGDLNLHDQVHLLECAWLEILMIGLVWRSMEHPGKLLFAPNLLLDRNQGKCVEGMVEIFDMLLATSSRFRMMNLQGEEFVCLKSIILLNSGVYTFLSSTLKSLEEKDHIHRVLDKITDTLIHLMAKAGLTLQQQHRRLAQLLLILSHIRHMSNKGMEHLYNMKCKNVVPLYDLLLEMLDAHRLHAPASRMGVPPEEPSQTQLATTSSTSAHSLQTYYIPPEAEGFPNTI
Would you mind telling me the reported Uterotrophic effect of each entry?
Answer with a bare number; do not write a unit.

Q) For the molecule CCc1c(-c2ccc(OC(C)=O)cc2)n(CC)c2cc(OC(C)=O)ccc12 , give its measured Uterotrophic effect value.
A) 25.5

Q) For the molecule CCn1c(-c2ccc(OC(C)=O)cc2)c(C)c2ccc(OC(C)=O)cc21 , give its measured Uterotrophic effect value.
A) 20.8

Q) For the molecule CC(=O)Oc1ccc(-c2c(C)c3ccc(OC(C)=O)cc3n2C)cc1 , give its measured Uterotrophic effect value.
A) 18.2

Q) For the molecule CCCn1c(-c2ccc(OC(C)=O)cc2)c(C)c2cc(OC(C)=O)ccc21 , give its measured Uterotrophic effect value.
A) 16.7

====

target: Estrogen receptor (Mus musculus) (UniProt O08537+P19785); experiment: Anti-uterotrophic activity in mice as uterus dry weight (mg)/body weight (g) *100 at 125 ug dose; assay type: functional, tissue-based
Recorded endpoint: Anti-uterotrophic effect
Answer with a bare number; do not write a unit.

Q) For the compound CC(=O)Oc1ccc(-c2c(C)c3cc(OC(C)=O)ccc3n2C)cc1 , give its measured Anti-uterotrophic effect value.
A) 28.8

Q) For the compound CC(=O)Oc1ccc(-c2c(C)c3ccc(OC(C)=O)cc3n2C)cc1 , give its measured Anti-uterotrophic effect value.
A) 31.7

Q) For the compound CCc1c(-c2ccc(OC(C)=O)cc2)n(C)c2cc(OC(C)=O)ccc12 , give its measured Anti-uterotrophic effect value.
A) 34.7

Q) For the compound CCn1c(-c2cccc(OC(C)=O)c2)c(C)c2ccc(OC(C)=O)cc21 , give its measured Anti-uterotrophic effect value.
A) 37.4

Q) For the compound CCCn1c(-c2ccc(OC(C)=O)cc2)c(C)c2cc(OC(C)=O)ccc21 , give its measured Anti-uterotrophic effect value.
A) 29.3

====

Would you mind telling me the reported Uterotrophic effect of each entry?
molecular target: Estrogen receptor (Mus musculus) (UniProt O08537+P19785); test: Uterotrophic activity in mice as uterus dry weight (mg)/body weight (g) *100 at 1 ug dose; type: functional, tissue-based
Answer with a bare number; do not write a unit.

Q) For the molecule CCc1c(-c2ccc(OC(C)=O)cc2)n(CC)c2cc(OC(C)=O)ccc12 , give its measured Uterotrophic effect value.
A) 36.2

Q) For the molecule CCc1c(-c2ccc(OC(C)=O)cc2)n(CC)c2ccc(OC(C)=O)cc12 , give its measured Uterotrophic effect value.
A) 29.5

Q) For the molecule CCn1c(-c2cccc(OC(C)=O)c2)c(C)c2ccc(OC(C)=O)cc21 , give its measured Uterotrophic effect value.
A) 15.2

Q) For the molecule CCn1c(-c2ccc(OC(C)=O)cc2)c(C)c2ccc(OC(C)=O)cc21 , give its measured Uterotrophic effect value.
A) 31.6

====

biological target: Estrogen receptor (Mus musculus) (UniProt O08537+P19785); assay: Percentage inhibition of uterotrophic activity at 25 ug dose; type: functional
Decide using inhibition: a value greater than or equal to 40% is Fulfilled, a smaller one is Not fulfilled.

Q) Determine whether this compound has inhibition no lower than 40%: CCn1c(-c2cccc(OC(C)=O)c2)c(C)c2ccc(OC(C)=O)cc21
A) Not fulfilled

Q) Determine whether this compound has inhibition no lower than 40%: CC(=O)Oc1ccc(-c2c(C)c3ccc(OC(C)=O)cc3n2C)cc1
A) Not fulfilled

Q) Determine whether this compound has inhibition no lower than 40%: CCn1c(-c2ccc(OC(C)=O)cc2)c(C)c2cc(OC(C)=O)ccc21
A) Fulfilled

Q) Determine whether this compound has inhibition no lower than 40%: CC(=O)Oc1ccc(-c2c(C)c3cc(OC(C)=O)ccc3n2C)cc1
A) Fulfilled

Q) Determine whether this compound has inhibition no lower than 40%: CCCn1c(-c2ccc(OC(C)=O)cc2)c(C)c2cc(OC(C)=O)ccc21
A) Fulfilled

Q) Determine whether this compound has inhibition no lower than 40%: CCc1c(-c2ccc(OC(C)=O)cc2)n(C)c2cc(OC(C)=O)ccc12
A) Fulfilled

====

biological target: Estrogen receptor (Mus musculus) (UniProt O08537+P19785); assay: Percentage inhibition of uterotrophic activity at 1 ug dose; assay type: functional
Recorded endpoint: inhibition (%)
Express it in %; write the number only.

Q) Write down measured inhibition (Estrogen receptor (Mus musculus) (UniProt O08537+P19785)) for this molecule. CC(=O)Oc1ccc(-c2c(C)c3cc(OC(C)=O)ccc3n2C)cc1
A) 33

Q) Write down measured inhibition (Estrogen receptor (Mus musculus) (UniProt O08537+P19785)) for this molecule. CCc1c(-c2ccc(OC(C)=O)cc2)n(C)c2cc(OC(C)=O)ccc12
A) 17

Q) Write down measured inhibition (Estrogen receptor (Mus musculus) (UniProt O08537+P19785)) for this molecule. CC(=O)Oc1ccc(-c2c(C)c3ccc(OC(C)=O)cc3n2C)cc1
A) 31

Q) Write down measured inhibition (Estrogen receptor (Mus musculus) (UniProt O08537+P19785)) for this molecule. CCCn1c(-c2ccc(OC(C)=O)cc2)c(C)c2cc(OC(C)=O)ccc21
A) 24
